- system: Ghrelin receptor (Homo sapiens)
- Sequence (Q92847 whole entry): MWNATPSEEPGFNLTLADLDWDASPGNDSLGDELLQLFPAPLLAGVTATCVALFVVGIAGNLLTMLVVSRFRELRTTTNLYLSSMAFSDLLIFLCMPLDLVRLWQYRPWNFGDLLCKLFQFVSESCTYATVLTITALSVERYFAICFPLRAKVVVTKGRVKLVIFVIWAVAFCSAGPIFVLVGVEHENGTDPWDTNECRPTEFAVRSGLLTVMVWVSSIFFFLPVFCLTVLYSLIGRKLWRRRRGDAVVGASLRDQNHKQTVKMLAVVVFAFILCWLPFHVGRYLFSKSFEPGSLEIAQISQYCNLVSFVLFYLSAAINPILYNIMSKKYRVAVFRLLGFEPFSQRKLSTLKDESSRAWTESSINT
- experiment: Receptor Selection and Amplification Technology (R-SAT) assay
- Format: cell-based
- Parameters: expressed in transfected cells; host or cells: NIH3T3
- settings: negative logarithm of ligand concentration causing 50% inhibition of constitutive receptor response; transfected NIH3T3 cells; '—' not defined (nd used separately); read-out: RSAT pIC50 (converted)
reported_metric: log10(IC50) (log10 of the value in µM)
Lab note - IC50 converted to log10 from values in µM.

Here are 10 compounds together with their reported answers.
# compound, system, log10(IC50)
data = [
    ("CC(=O)c1cn(CCCN2C3CCC2CC(CC(=O)c2ccccc2)C3)c2c(C)cccc12 (centres unmarked)", "Ghrelin receptor (Homo sapiens)", -3.10),
    ("CCCCC[C@H]1C[C@H]2CC[C@@H](C1)N2CCCn1cc(C(C)=O)c2cccc(OC)c21", "Ghrelin receptor (Homo sapiens)", -2.70),
    ("COc1cccc2c(C(C)=O)cn(CC(C)CN3CCCN(Cc4ccccc4Cl)CC3)c12 (centres unmarked)", "Ghrelin receptor (Homo sapiens)", -2.00),
    ("CC(=O)c1cn(CCCN2CCC(Oc3cccc(Cl)c3)CC2)c2c(C)cccc12", "Ghrelin receptor (Homo sapiens)", -2.00),
    ("CC(=O)c1cn(CCCN2CCC(Oc3ccc(Cl)cc3)CC2)c2c(Br)cccc12", "Ghrelin receptor (Homo sapiens)", -2.40),
    ("CC(=O)c1cn(CCCN2CCC(CCC(C)C)CC2)c2ccccc12", "Ghrelin receptor (Homo sapiens)", -0.40),
    ("CC(=O)c1cn(CCCN2CCC(Oc3ccc(Cl)cc3)CC2)c2ccccc12", "Ghrelin receptor (Homo sapiens)", -0.90),
    ("CC(=O)c1cn(CCN2C3CCC2CC(O)(c2ccc(F)cc2)C3)c2ccccc12 (centres unmarked)", "Ghrelin receptor (Homo sapiens)", 0.40),
    ("COc1cccc2c(C(C)=O)cn(CCCN3CCCN(Cc4ccccc4Cl)CC3)c12", "Ghrelin receptor (Homo sapiens)", -3.60),
    ("CC(=O)c1cn(CCCN2CCC(C(=O)c3ccccc3)CC2)c2c(Cl)cccc12", "Ghrelin receptor (Homo sapiens)", 3.20),
]

Query block: Respond only with log10(IC50) recorded for COc1cccc2c(C(C)=O)cn(CCCN3CCN(C(C)c4ccccc4)CC3)c12 (centres unmarked)
Result block: -0.80

Query block: Return the recorded log10(IC50) value; entry: CCc1cccc2c(C(C)=O)cn(CCCNC3Cc4ccccc4C3)c12
Result block: -0.80

Query block: Input CCCCC(=O)c1cn(CCCN2CCC3c4cc(OC)ccc4NC3C2)c2ccc(OC)cc12 (centres unmarked) , output reported log10(IC50).
Result block: -0.90

Query block: Could you please provide reported log10(IC50) for CC(C)CC(=O)c1cn(CCCN2C3CCC2CC(OC2=CC=C(Cl)CC2)C3)c2ccccc12 (centres unmarked) ? Thanks!
Result block: -0.80

Query block: Give recorded log10(IC50). COc1ccc2c(c1)C1CCN(CCCn3cc(C(C)=O)c4ccccc43)CC1C2 (centres unmarked)
Result block: 0.10

Query block: Please report the measured log10(IC50) for CCc1cccc2c(C(C)=O)cn(CCCN3C4CCC3CC(Oc3ccccc3Cl)C4)c12 (centres unmarked)
Result block: -1.00

Query block: Supply reported log10(IC50) belonging to this compound: CC(=O)c1cn(CCCN2CCC(c3nc(-c4ccncc4)no3)CC2)c2c(C)cccc12
Result block: -1.50
